Test system: Saccharomyces cerevisiae
Experiment: protein stability index of tFT-peptide fusion (C-terminal peptide) (PSI (0-1 scale)); higher = more stable (slower turnover);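 further: PSI is a weighted mean of sequencing reads over stability bins, variants kept only with over 10 reads, mCherry proximal and sfGFP distal, peptide attached via GGGS linker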
Settings: genetic background: wild type; temperature: 30 C
reported-endpoint: protein stability index

Requested field: protein stability index. Item: TNANKKNGRGNT 0.683

Requested field: protein stability index. Item: LALDPVNLVTSL 0.682

Requested field: protein stability index. Item: RRASTVRVPTCW 0.701

Requested field: protein stability index. Item: LLHQSRSQVSFY 0.717

Requested field: protein stability index. Item: QEEKLSKNSKKK 0.691

Requested field: protein stability index. Item: SSRGSSSPPPHF 0.709

Requested field: protein stability index. Item: PLPSSSTRSTSP 0.714

Requested field: protein stability index. Item: VRLRGEGCGWGG 0.716

Requested field: protein stability index. Item: KKKKREKSKHRK 0.714

Requested field: protein stability index. Item: GKYHIFNPNPKA 0.685

Requested field: protein stability index. Item: FLLPPASLSLPP 0.707

Requested field: protein stability index. Item: PPPLPPSPPHHP 0.689

Requested field: protein stability index. Item: EVLLVHWINPNA 0.687

Requested field: protein stability index. Item: GAYKVPSYGINY 0.695

Requested field: protein stability index. Item: RPSPPLLLPPAP 0.718

###

System: Saccharomyces cerevisiae
Assay: protein stability index of tFT-peptide fusion (C-terminal peptide) (PSI (0-1 scale)); higher = more stable (slower turnover)
Settings: genetic background: wild type; temperature: 30 C
reported-endpoint: protein stability index
Reply: number alone, nothing else.

# annotated cases, reported protein stability index shown
MPARGLAWLPVS 0.654
QKKNNKTTKKTK 0.686

Requested field: protein stability index. Item: SVCSRVLILSPF 0.657

Requested field: protein stability index. Item: PLHNPPTRRTTP 0.67

Requested field: protein stability index. Item: VWSGGDGGGAVV 0.733

Requested field: protein stability index. Item: GRVLSEAWSEAF 0.664

Requested field: protein stability index. Item: SLWPLFVDVVCL 0.498

###

System: Saccharomyces cerevisiae
Assay: protein stability index of tFT-peptide fusion (C-terminal peptide) (PSI (0-1 scale)); higher = more stable (slower turnover)
Settings: genetic background: wild type; temperature: 37 C
reported-endpoint: protein stability index
Reply: number alone, nothing else.

# annotated cases, reported protein stability index shown
FFLLLLRPPLVM 0.412
APRPSYSLLALL 0.616

We now examine a further sequence.
Requested field: protein stability index. Item: GPWVIFSHLLLT 0.396

###

Tested on: Saccharomyces cerevisiae
Experiment: protein stability index of tFT-peptide fusion (C-terminal peptide) (PSI (0-1 scale)); higher = more stable (slower turnover)
Details: genetic background: wild type; temperature: 30 C
Form field: protein stability index (one value per entry).
Reply: number alone, nothing else.

Requested read-out protein stability index, target or system Saccharomyces cerevisiae, entry SVTSKDEYDLEE 0.694

Requested read-out protein stability index, target or system Saccharomyces cerevisiae, entry PPRAHQSCPCRR 0.719

Requested read-out protein stability index, target or system Saccharomyces cerevisiae, entry PFPRGCCRLLSP 0.707

###

Form field: protein stability index (one value per entry).
System: Saccharomyces cerevisiae
Assay: protein stability index of tFT-peptide fusion (C-terminal peptide) (PSI (0-1 scale)); higher = more stable (slower turnover)
Conditions: genetic background: wild type; temperature: 30 C
Reply: number alone, nothing else.

# annotated cases, reported protein stability index shown
AGSSFDLGSGYS 0.724
WSSVLGYFSRKE 0.702
LGWWGVWSWGRG 0.655
FGGLLFTRFGWE 0.802
APPPPPPSPRVP 0.71
ALVAPAYYWGDV 0.745
SPPSLRLPPPPA 0.772
VAVDGSDQGGTR 0.64
RTKETTTRQKKK 0.708
WEQQTSLPLLSL 0.712

Requested field: protein stability index. Item: SESVGLCLGVTW 0.767

Requested field: protein stability index. Item: QLIDVGLLNCAA 0.498

Requested field: protein stability index. Item: GPSREFGSNWII 0.612
